test system: 186277-243-T-J2-PDC complex spheroid viability; experiment: Anticancer human tumor 186277-243-T-J2-PDC patient-derived colon adenocarcinoma cell line growth inhibition [GQUAD]; details: second compound 0.0316 µM; first compound 0.1 µM; hits give low values;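 further: spheroids exposed to drugs for 7 days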
Hi! Just check whether viability, T/C is below 90%. Below gives T, equal or above gives F.

Consider the worked cases shown below.
{"columns": ["compound", "answer_label"],
 "data": [
  ["Cc1cccc(N(C)C(=O)C2C(O)CCN2c2nc(C)cc(C(F)(F)F)c2C#N)c1 (stereo unspecified) + Cc1cnc(CNC(=O)c2c(=O)c3ccc(N4CCCN(C)CC4)nc3n3c2sc2ccccc23)cn1", "F"],
  ["O=c1[nH]cc(F)c(=O)[nH]1 + Cc1cnc(CNC(=O)c2c(=O)c3ccc(N4CCCN(C)CC4)nc3n3c2sc2ccccc23)cn1", "F"],
  ["C=CCn1c(=O)c2cnc(Nc3ccc(N4CCN(C)CC4)cc3)nc2n1-c1cccc(C(C)(C)O)n1 + CN(C)c1ccc(Nc2c3ccc(NC(=O)CCN4CCCC4)cc3nc3cc(NC(=O)CCN4CCCC4)ccc23)cc1", "T"],
  ["COc1cccc2c1C(=O)c1c(O)c3c(c(O)c1C2=O)CC(O)(C(=O)CO)CC3OC1CC(N)C(O)C(C)O1 (stereo unspecified) + Cc1[nH]c2ccc(F)cc2c1-c1nc2c3cccnc3c3ncccc3c2[nH]1", "F"],
  ["CCCS(=O)(=O)Nc1ccc(F)c(C(=O)c2c[nH]c3ncc(-c4ccc(Cl)cc4)cc23)c1F + Cc1[nH]c2ccc(F)cc2c1-c1nc2c3cccnc3c3ncccc3c2[nH]1", "F"],
  ["COc1ccc([C@@H](O)c2cc(-c3ncnc4cc(N5CCOCC5)ccc34)c(F)cc2Cl)nn1 + Cc1[nH]c2ccc(F)cc2c1-c1nc2c3cccnc3c3ncccc3c2[nH]1", "F"]
]}

(Q) Threshold test, viability, T/C < 90%: Cc1cccc(N(C)C(=O)C2C(O)CCN2c2nc(C)cc(C(F)(F)F)c2C#N)c1 (stereo unspecified) + Cc1[nH]c2ccc(F)cc2c1-c1nc2c3cccnc3c3ncccc3c2[nH]1
(A) F

(Q) Threshold test, viability, T/C < 90%: Nc1ccn(C2OC(CO)C(O)C2(F)F)c(=O)n1 (stereo unspecified) + Cc1[nH]c2ccc(F)cc2c1-c1nc2c3cccnc3c3ncccc3c2[nH]1
(A) T

(Q) Threshold test, viability, T/C < 90%: CC1COCCN1c1cc(C2(O)CC3CCC(C2)O3)c2cnn(-c3ccn[nH]3)c2n1 (stereo unspecified) + CN(C)c1ccc(Nc2c3ccc(NC(=O)CCN4CCCC4)cc3nc3cc(NC(=O)CCN4CCCC4)ccc23)cc1
(A) T

Source: PubChem BioAssay AID2060512
